- Test system: Trypanosoma cruzi
- test.summary: Inhibitory concentration against Trypanosoma cruzi (amastigotes)
- Assay type: functional, organism-based
- setup.conditions: Trypanosoma cruzi
result.type: IC50

For CCCC(P(=O)(O)O)P(=O)(O)O the compound record lists IC50 as > 90 µM

For CCCCCCC(P(=O)(O)O)P(=O)(O)O the compound record lists IC50 as > 70 µM

For CCCCC(P(=O)(OCC)OCC)P(=O)(OCC)OCC the compound record lists IC50 as > 50 µM

For CCCCCCCC(O)(P(=O)(O)O)P(=O)(O)O the compound record lists IC50 as > 70 µM

For CCCCCCCCCCCCCC(O)(P(=O)(O)O)P(=O)(O)O the compound record lists IC50 as > 70 µM

For CCC(P(=O)(O)O)P(=O)(O)O the compound record lists IC50 as > 100 µM

For CCCCCCCCC(P(=O)(OCC)OCC)P(=O)(OCC)OCC the compound record lists IC50 as > 50 µM

For CCOP(=O)(OCC)C(CC)P(=O)(OCC)OCC the compound record lists IC50 as > 70 µM

For CCCCC(P(=O)(O)O)P(=O)(O)O the compound record lists IC50 as > 70 µM

For CCCC(P(=O)(OCC)OCC)P(=O)(OCC)OCC the compound record lists IC50 as > 70 µM

For CCCCCCCC(P(=O)(O)O)P(=O)(O)O the compound record lists IC50 as > 70 µM

For CCCCCC(O)(P(=O)(O)O)P(=O)(O)O the compound record lists IC50 as > 70 µM

----------
- Test system: Trypanosoma cruzi
- test.summary: Maximum inhibitory activity against Trypanosoma cruzi (amastigotes)
- Format: functional
Kind request: treat 30% as inclusive, so Inhibition at 30% or higher is condition met, anything lower is condition not met.

Task item: # bool: Inhibition of CCCC(P(=O)(OCC)OCC)P(=O)(OCC)OCC >= 30%
Reply: condition not met

Task item: # bool: Inhibition of CCCCCCC(P(=O)(O)O)P(=O)(O)O >= 30%
Reply: condition met

Task item: # bool: Inhibition of CCCCCCCC(P(=O)(O)O)P(=O)(O)O >= 30%
Reply: condition met

Task item: # bool: Inhibition of CCC(P(=O)(O)O)P(=O)(O)O >= 30%
Reply: condition not met

Task item: # bool: Inhibition of CCCC(P(=O)(O)O)P(=O)(O)O >= 30%
Reply: condition not met

Task item: # bool: Inhibition of CCCCCCCCCCCCCC(O)(P(=O)(O)O)P(=O)(O)O >= 30%
Reply: condition not met

Data origin, for the record: ChEMBL document CHEMBL1136233
